System: 282377-053-R-J1-PDC complex spheroid viability;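 further: spheroids exposed to agents for seven days before readout; luminescence viability as percent of DMSO vehicle control wells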
test_summary: Anticancer human tumor 282377-053-R-J1-PDC patient-derived colon adenocarcinoma cell line growth inhibition [RAS]
applied_conditions: second compound 0.0949 µM; first compound 0.03 µM; hits give low values
reported_property: viability, T/C (%)
Provide the reading as a plain figure in %.

The reported viability, T/C of the molecule CCc1c2c(nc3ccc(O)cc13)-c1cc3c(c(=O)n1C2)COC(=O)[C@]3(O)CC + CCn1c(-c2cc(N3CCN(C)CC3)cnc2C(C)OC)c2c3cc(ccc31)-c1csc(n1)CC(NC(=O)C1CC1C)C(=O)N1CCCC(N1)C(=O)OCC(C)(C)C2 was 131

The reported viability, T/C of the molecule CC1(C)CCC(Nc2ncc(C(F)(F)F)c(-c3c[nH]c4c(P(C)(C)=O)c(C#N)ccc34)n2)CN1 (centres undefined) + CCn1c(-c2cc(N3CCN(C)CC3)cnc2C(C)OC)c2c3cc(ccc31)-c1csc(n1)CC(NC(=O)C1CC1C)C(=O)N1CCCC(N1)C(=O)OCC(C)(C)C2 was 110

The reported viability, T/C of the molecule CC1(C)CCC(Nc2ncc(C(F)(F)F)c(-c3c[nH]c4c(P(C)(C)=O)c(C#N)ccc34)n2)CN1 (centres undefined) + CCn1c(-c2cccnc2C(C)OC)c2c3cc(ccc31)N1CCOC(CC(NC(=O)C(C(C)C)N(C)C(=O)C3(F)CCN(C(=O)C#CC(C)(C)N(C)C)CC3)C(=O)N3CCCC(N3)C(=O)OCC(C)(C)C2)C1 was 77

The reported viability, T/C of the molecule CCc1c2c(nc3ccc(O)cc13)-c1cc3c(c(=O)n1C2)COC(=O)[C@]3(O)CC + CCn1c(-c2cccnc2C(C)OC)c2c3cc(ccc31)N1CCOC(CC(NC(=O)C(C(C)C)N(C)C(=O)C3(F)CCN(C(=O)C#CC(C)(C)N(C)C)CC3)C(=O)N3CCCC(N3)C(=O)OCC(C)(C)C2)C1 was 136
